Assay: Single-dose pharmacokinetics in rats (plasma, UHPLC/MS/MS)
Format: in vivo, Sprague Dawley rats
Conditions: male, Sprague Dawley, rat, plasma, iv, 42 mg/kg
property_measured: Tmax (min)
Dear colleague, please return just the value in min, with no unit written.

Ask: Given C[C@@H]1O[C@@H](O[C@H]2[C@H](Oc3cc(O)c4c(c3)O[C@H](c3ccc(O)cc3)CC4=O)O[C@H](CO)[C@@H](O)[C@@H]2O)[C@H](O)[C@H](O)[C@H]1O [naringin, Naringin] , state its recorded Tmax.
Result: 1.8

###

Experiment: Single ascending dose and food-effect pharmacokinetics of naringin tablets in healthy humans
Type: in vivo, human
Conditions: both sexes, human, plasma, po, 480 mg, naringin 480 mg p.o. single dose, human; read-out: MRT0-t
property_measured: MRT last (h)
Dear colleague, please return just the value in h, with no unit written.

Ask: Given "C[C@@H]1O[C@@H](O[C@H]2[C@H](Oc3cc(O)c4c(c3)O[C@H](c3ccc(O)cc3)CC4=O)O[C@H](CO)[C@@H](O)[C@@H]2O)[C@H](O)[C@H](O)[C@H]1O" , state its recorded MRT last.
Result: 3.08
